# ASSAY TARGET: Estrogen receptor beta (Homo sapiens)
# Sequence (Q92731 whole entry): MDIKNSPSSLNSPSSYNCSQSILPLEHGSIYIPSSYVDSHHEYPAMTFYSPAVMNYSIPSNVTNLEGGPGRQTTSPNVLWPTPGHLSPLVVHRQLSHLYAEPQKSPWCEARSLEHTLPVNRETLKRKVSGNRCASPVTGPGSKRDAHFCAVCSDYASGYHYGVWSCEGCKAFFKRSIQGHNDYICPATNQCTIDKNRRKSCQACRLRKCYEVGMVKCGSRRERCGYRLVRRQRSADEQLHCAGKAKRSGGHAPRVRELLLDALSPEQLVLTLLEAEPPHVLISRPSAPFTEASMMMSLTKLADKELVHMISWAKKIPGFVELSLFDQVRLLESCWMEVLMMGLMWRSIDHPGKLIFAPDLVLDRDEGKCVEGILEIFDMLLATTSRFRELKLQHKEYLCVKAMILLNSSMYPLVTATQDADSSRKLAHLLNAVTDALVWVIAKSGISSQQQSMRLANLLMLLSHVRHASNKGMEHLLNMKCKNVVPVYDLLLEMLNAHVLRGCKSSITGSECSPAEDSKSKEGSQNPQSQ
# TEST: blockers of SRC-3 recruitment to ERβ – biochemical, ELISA, streptavidin-HRP readout, orthogonal assay, confirmation (AID 1060)
Entries and their IC50

Solved cases (3 shown):
O=C(c1ccc(CS(=O)(=O)c2ccccc2)o1)N1CCC2(CC1)OCCO2 : 4.05 µM (not active)
CSc1nnc(-c2ccco2)c(-c2ccco2)n1 : > 50 µM (not active)
O=C(c1ccc2nc(-c3ccco3)c(-c3ccco3)nc2c1)N1CCC2(CC1)OCCO2 : 8.97 µM (not active)

So the reported IC50 for O=C(CSc1nnc(-c2ccccc2)[nH]1)c1ccc(O)c(O)c1 , on Estrogen receptor beta (Homo sapiens), turned out to be 15.6 µM (not active)

Readout IC50 for Cc1ccccc1-c1ccc(Nc2ccc(N3CCOCC3)cc2)nn1 , test system Estrogen receptor beta (Homo sapiens), was < 0.023 µM (not active)
